target: Lysine-specific demethylase 4C (Homo sapiens); test: inhibitors of GASC-1 histone demethylase, primary screen, biochemical, fluorescence, DELFIA europium (AID 2099); conditions: GST-JMJD2C(1-420) H3K9me3 demethylation, at 2.35 µM, stronger effect = higher value;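 note: signal counts dimethyl H3K9 product captured on neutravidin plate; 0% = median of DMSO wells and 100% = 0.3 times that DMSO median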
Screen size: about 330,000 compounds; about 230 (0.07%) were called active. This excerpt belongs to a sample that is enriched for actives.
Value Kind: inhibition (%)
Give bare numbers, in %.

For orientation, consider the following solved cases.
[[record]]
compound = "CCOC(=O)C(=Cc1ccccc1OC)C(=O)OCC"
endpoint_result = -1.48

[[record]]
compound = "CCCCn1c(N)c(N(CC(C)C)C(=O)c2ccc(-n3c(C)ccc3C)cc2)c(=O)[nH]c1=O"
endpoint_result = -11.1

[[record]]
compound = "O=C(CN1CCCCCC1)Nc1ccc(Br)cc1Br"
endpoint_result = 7.23

[[record]]
compound = "O=C1c2ccccc2C(=O)N1CCOc1ccc(F)cc1"
endpoint_result = -6.36

[[record]]
compound = "O=C(c1cc2ccccc2s1)N1CCN(c2ccccn2)CC1"
endpoint_result = -6.37


Below are some compounds; for each one, tell me its inhibition.
1. Cc1cc(C)n(CCNC(=O)CC2C(=O)NCCN2Cc2ccc(C)o2)n1 (centres undefined)
2. CC(=O)Nc1ccc(NC(=O)C(C)OC(=O)C2CC(=O)N(CCc3ccccc3)C2)cc1 (centres undefined)
3. O=C(COC(=O)c1ccccc1NC(=O)c1ccco1)Nc1ccc2c(c1)OC(F)(F)O2
4. CC(=O)NC1=NN(C(C)=O)C(C)(c2ccc(Cl)s2)S1 (centres undefined)
5. CC(C)=CCN1CCN(Cc2cc3ccccc3[nH]2)CC1CCO (centres undefined)
6. CC(=O)Nc1ccc(Nc2ncnc3c2nnn3Cc2ccccc2Cl)cc1
7. CC(C)n1c(=S)[nH]c2cc(C(F)(F)F)ccc21
8. CCc1nc2cccnc2n1-c1ccc(C(=O)O)cc1

*A*
-19.8
0.0499
-7.33
-13.4
-4.87
1.4
9.24
3.28

# batch size: 2; output inhibition per entry
1. COc1ccc([N+](=O)[O-])cc1NC(=O)CC1SC(=Nc2cccc(C)c2C)N(/N=C(\C)c2ccc(C)cc2)C1=O (centres undefined)
2. CN(CCCC(=O)Nc1nccs1)S(=O)(=O)c1ccc(Cl)cc1

*A*
1. -21.9
2. 9.62

====

Assign inhibition to each entry below.
target: Lysine-specific demethylase 4C (Homo sapiens) (UniProt Q9H3R0); test: inhibitors of GASC-1 histone demethylase, primary screen, biochemical, fluorescence, DELFIA europium (AID 2099); conditions: GST-JMJD2C(1-420) H3K9me3 demethylation, at 2.35 µM, stronger effect = higher value
Sequence (Q9H3R0 1-420 limits assumed): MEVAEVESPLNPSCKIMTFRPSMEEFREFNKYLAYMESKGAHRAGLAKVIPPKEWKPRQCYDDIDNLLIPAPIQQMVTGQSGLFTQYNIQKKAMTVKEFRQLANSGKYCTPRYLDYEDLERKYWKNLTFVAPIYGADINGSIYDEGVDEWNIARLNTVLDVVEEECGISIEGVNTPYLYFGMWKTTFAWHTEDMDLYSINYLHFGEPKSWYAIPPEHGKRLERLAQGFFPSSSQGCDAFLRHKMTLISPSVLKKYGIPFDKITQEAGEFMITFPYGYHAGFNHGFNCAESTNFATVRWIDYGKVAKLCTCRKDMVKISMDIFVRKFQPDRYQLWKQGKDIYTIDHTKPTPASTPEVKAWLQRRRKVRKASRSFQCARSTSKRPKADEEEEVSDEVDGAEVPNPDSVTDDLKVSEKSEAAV
Hit rate of the full screen: of about 330,000 compounds, about 230 (0.07%) were called active. The entries come from a sample that favours actives as a whole.
Answers are plain numbers, in %.

As a guide, the following entries are already answered.
[[record]]
smiles = "O=C(O)CCCn1cc(NC(=O)COc2cccc(Cl)c2)cn1"
measured_target = "Lysine-specific demethylase 4C (Homo sapiens) (UniProt Q9H3R0)"
endpoint_result = -414

[[record]]
smiles = "CC(C)(C)n1nnc(CCc2nnn(C(C)(C)C)n2)n1"
measured_target = "Lysine-specific demethylase 4C (Homo sapiens) (UniProt Q9H3R0)"
endpoint_result = 4.71


Hi there! I need inhibition for each item below, if you can.
1. Cc1[nH]c(C)c(S(=O)(=O)N2CCN(c3cccc(C(F)(F)F)c3)CC2)c1C(=O)N1CCCCC1
2. Cc1ccc2nc(-c3ccc(NC(=O)CN(C)S(=O)(=O)c4ccccc4)cc3)sc2c1

*A*
30
-15.6

*Q* Report measured inhibition; entry is C=CCSc1nc(Cc2ccc(Cl)cc2)nc2ccccc12
*A* -13.3

====

target: Lysine-specific demethylase 4C (Homo sapiens); assay: inhibitors of GASC-1 histone demethylase, primary screen, biochemical, fluorescence, DELFIA europium (AID 2099); conditions: GST-JMJD2C(1-420) H3K9me3 demethylation, at 2.35 µM, stronger effect = higher value;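 note: signal counts dimethyl H3K9 product captured on neutravidin plate; 0% = median of DMSO wells and 100% = 0.3 times that DMSO median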
Hit rate of the full screen: of about 330,000 compounds, about 230 (0.07%) were called active. This is one part of a sample in which actives are shown more often than they occur.
Value Kind: inhibition (%)
Give bare numbers, in %.

Recorded inhibition, per entry:
[[record]]
compound = "Cc1cc(C)c(S(=O)(=O)N2CCOCC2)cc1C"
endpoint_result = 8.81

[[record]]
compound = "COc1ccc(F)c(-c2nc(CN3CCC(c4ccccc4)CC3)c(C)o2)c1"
endpoint_result = -8.87

[[record]]
compound = "CCC(C(=O)Nc1ccc(C(C)C)cc1)c1ccccc1 (configuration not stated)"
endpoint_result = -16

[[record]]
compound = "N#CCc1c(C#N)c(N)nc(N2CCCC2)c1C#N"
endpoint_result = 1.17

[[record]]
compound = "COc1cccc(OC)c1C(=O)OCC(=O)/C(C#N)=C(\\C)N"
endpoint_result = -25.5


Give inhibition for each listed item.
1. C/C(=N\NC(=O)CCn1nc(C)cc1C)C(C)(C)C
2. COc1ccccc1C(=O)Nc1cccc(C(=O)N2CCOCC2)c1
3. Nc1nc(NCC(=O)O)nc(N2CCCCCC2)c1[N+](=O)[O-]
4. O=C(CN1C(=O)NC2(CCCCCC2)C1=O)NCc1ccc(F)cc1
5. COC(=O)c1cc(CNC(=O)CC(C)c2ccccc2)ccc1OC (configuration not stated)
6. Cc1nc2nc(SCC(=O)Nc3cccc(F)c3)[nH]c2cc1Br
7. CCc1ccc(N2CC(C(=O)N3CCCCCC3)CC2=O)cc1 (configuration not stated)

*A*
-1.66
4.92
21.9
2.24
-9.06
6.95
1.98

====

biological target: Lysine-specific demethylase 4C (Homo sapiens) (UniProt Q9H3R0); assay: inhibitors of GASC-1 histone demethylase, primary screen, biochemical, fluorescence, DELFIA europium (AID 2099); settings: GST-JMJD2C(1-420) H3K9me3 demethylation, at 2.35 µM, stronger effect = higher value;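 note: signal counts dimethyl H3K9 product captured on neutravidin plate; 0% = median of DMSO wells and 100% = 0.3 times that DMSO median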
The campaign covered roughly 330,000 compounds. About 230 (0.07%) were called active. The sample as a whole holds a higher share of actives than the screen did.
Value Kind: inhibition (%)
Answers are plain numbers, in %.

[[record]]
molecule = "COc1cc(CN(C)Cc2nc3cc(C(F)(F)F)ccc3c(=O)[nH]2)ccc1OC(F)F"
endpoint_result = -0.492

[[record]]
molecule = "Cc1ccc(-n2c(CNc3ccc(F)cc3)nnc2SCC(=O)N2CCOCC2)cc1"
endpoint_result = 0.71


Look up inhibition for the entries below, preserving their order.
1. COc1ccc(-c2nnc(SC(=O)N3c4ccccc4Sc4ccccc43)o2)cc1
2. CC(=O)Nc1ccc(NC(=O)CCN2C(=O)C3CC=CCC3C2=O)cc1 (centres undefined)
3. CCCCN1CCNC1=S
4. CC1CN(C(=O)COC(=O)c2cccc(NS(=O)(=O)c3ccccc3)c2)CC(C)O1 (centres undefined)
5. Cc1ccc2oc(C(=O)N3CCN(C)C[C@@H]3C(C)C)c(C)c2c1
6. O=C(CSCc1c(Cl)cccc1Cl)NN1C(=O)c2ccccc2C1=O
7. Cc1ccccc1CN1C[C@@H]2C[C@@H](c3ccc4nsnc4c3)N3CCC[C@@]23C1=O
8. Cn1ccnc1-c1nnn(-c2ccc(F)cc2)n1

*A*
[-0.278, 3.08, 0.223, -11.9, -21.1, -14.7, 10.6, 1.58]

====

target: Lysine-specific demethylase 4C (Homo sapiens); test: inhibitors of GASC-1 histone demethylase, primary screen, biochemical, fluorescence, DELFIA europium (AID 2099); conditions: GST-JMJD2C(1-420) H3K9me3 demethylation, at 2.35 µM, stronger effect = higher value;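 note: signal counts dimethyl H3K9 product captured on neutravidin plate; 0% = median of DMSO wells and 100% = 0.3 times that DMSO median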
The campaign covered roughly 330,000 compounds. About 230 (0.07%) were called active. The sample as a whole holds a higher share of actives than the screen did.
Would you kindly list inhibition for each of these molecules?
Numbers only, in %.

[[record]]
molecule = "Nc1nc(SCC(=O)Nc2cc(C(F)(F)F)ccc2Cl)[nH]c(=O)c1NC(=O)c1ccco1"
endpoint_result = 6.68


Provide each entry's inhibition from the list below.
1. CCOC(=O)c1sc(-c2cccc([N+](=O)[O-])c2)cc1N
2. CCN(C(=O)CSc1ncnc2sccc12)c1c(N)n(Cc2ccccc2)c(=O)[nH]c1=O
3. Cc1ccc(C(=O)CN2C(=O)NC3(CCOc4ccccc43)C2=O)s1 (centres undefined)
4. Cc1ccnc(NC(=O)CCNS(=O)(=O)c2ccc(C)c(C)c2)c1
5. Cc1ccc(CSc2nc3[nH]ncc3c(=O)[nH]2)cc1
6. O=C(NCc1ccccn1)c1cnc2sccn2c1=O
7. COc1ccc(NC(=O)C2CCC(CNc3c(N4CCCCC4)c(=O)c3=O)CC2)c(OC)c1 (centres undefined)
8. CCOc1cnc(-c2c(-c3ccccc3Cl)noc2C)o1

*A*
1. 0.615
2. -1.94
3. 0.803
4. 7.52
5. -14.5
6. -1.24
7. -6.37
8. 0.379

These measurements were taken from PubChem BioAssay AID2099.
